# target or test system: KRAS G12V (Homo sapiens (Human), UniProt P01116+P62937, G12V)
# Sequence (P01116-2 other isoform, or with tags, fused parts or gaps G12V): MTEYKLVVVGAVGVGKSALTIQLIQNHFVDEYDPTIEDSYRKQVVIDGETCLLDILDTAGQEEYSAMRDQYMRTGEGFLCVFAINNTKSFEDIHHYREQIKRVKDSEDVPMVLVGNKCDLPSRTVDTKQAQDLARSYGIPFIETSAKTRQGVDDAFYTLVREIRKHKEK
# Sequence (P62937 whole entry): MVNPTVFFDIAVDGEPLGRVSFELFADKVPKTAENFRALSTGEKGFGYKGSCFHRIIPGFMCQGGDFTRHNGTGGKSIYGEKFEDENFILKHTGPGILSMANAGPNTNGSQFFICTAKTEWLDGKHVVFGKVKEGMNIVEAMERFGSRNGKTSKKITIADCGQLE
# assay name: Ras-Raf (BRAF RBD) disruption / FRET / MOA assay, KRAS G12V
# Format: biochemical
# test parameters: read-out: IC50* KRAS G12V FRET data
# Protocol: The purpose of this biochemical assay is to measure the ability of test compounds to facilitate ternary complex formation between a nucleotide-loaded Ras isoform and cyclophilin A; the resulting ternary complex disrupts binding to a BRAF^RBD construct, inhibiting Ras signaling through a RAF effector. Compound is present in plate wells as a 10-point 3-fold dilution series starting at a final concentration of 30 μM. […]

>  <molecule>
CCn1c(-c2cccnc2[C@H](C)OC)c2c3cc(ccc31)-c1cccc(c1)C[C@H](NC(=O)[C@H](C(C)C)N(C)C(=O)[C@@H]1CCN(C(=O)C#CC(C)(C)N3CCC3)C1)C(=O)N1CCC[C@H](N1)C(=O)OCC(C)(C)C2 [Example A476]

>  <IC50>
1000 to 10000 nM

$$$$
>  <molecule>
C=CC(=O)N1CCO[C@H]2CCN(C(=O)N(C)[C@H](C(=O)N[C@H]3Cc4nc(cs4)-c4ccc5c(c4)c(c(-c4cccnc4[C@H](C)OC)n5CC)CC(C)(C)COC(=O)[C@@H]4CCCN(N4)C3=O)C(C)C)C[C@@H]21 (atropisomer, axis not shown) [Example A609]

>  <IC50>
10 to 100 nM

$$$$
>  <molecule>
C=CC(=O)N1C[C@H](F)[C@](F)(C(=O)N(C)[C@H](C(=O)N[C@H]2Cc3cccc(c3)-c3ccc4c(c3)c(c(-c3cccnc3[C@H](C)OC)n4CC)CC(C)(C)COC(=O)[C@@H]3CCCN(N3)C2=O)C(C)C)C1 (atropisomer, axis not shown) [Example A397]

>  <IC50>
100 to 1000 nM

$$$$
>  <molecule>
C=CC(=O)N1CC[C@H](C(=O)N(C)[C@H](C(=O)N[C@H]2Cc3csc(n3)-c3ccc4c(c3)c(c(-c3cc(N5CCN(C)CC5)cnc3[C@H](C)OC)n4CC(F)(F)F)CC(C)(C)COC(=O)[C@@H]3CCCN(N3)C2=O)C(C)C)C1 [Example A410]

>  <IC50>
100 to 1000 nM

$$$$

Origin of values: patent US11566007B2
